Origin of measurements: ChEMBL document CHEMBL5303573

- CONDITION_SET: victivallis vadensis, 12 h, 2 µM
- Description: The drug is tested on Victivallis vadensis strain: ATCC BAA-548 for biotransformation. The drug concentrations were measured before and after a 12-h incubation by liquid-chromatography-coupled mass spectrometry (LC–MS)
QUANTITY_NAME: Bacterial Biotransformation

Some solved entries appear below for comparison.
compound="CCCCC(=O)O[C@]1(C(=O)CO)[C@@H](C)C[C@H]2[C@@H]3CCC4=CC(=O)C=C[C@]4(C)[C@@]3(F)[C@@H](O)C[C@@]21C [BETAMETHASONE VALERATE]" quantity_name="Bacterial Biotransformation" recorded_measurement="Compound metabolized"
compound=CCOC(=O)[C@H](CCc1ccccc1)N[C@@H](C)C(=O)N1Cc2ccccc2C[C@H]1C(=O)O quantity_name="Bacterial Biotransformation" recorded_measurement="Compound NOT metabolized"
compound=CC(=O)OCC(CCn1cnc2cnc(N)nc21)COC(C)=O quantity_name="Bacterial Biotransformation" recorded_measurement="Compound metabolized"
compound=CN(C(=O)CN(CCO)CC(=O)N(C)C(C)(C)Cc1ccccc1)C(C)(C)Cc1ccccc1 quantity_name="Bacterial Biotransformation" recorded_measurement="Compound NOT metabolized"
compound="CC1=C(CC(=O)O)c2cc(F)ccc2/C1=C\\c1ccc([S+](C)[O-])cc1 (stereo not given)" quantity_name="Bacterial Biotransformation" recorded_measurement="Compound NOT metabolized"
compound="CC(N)C12CC3CC(CC(C3)C1)C2 (stereo not given)" quantity_name="Bacterial Biotransformation" recorded_measurement="Compound NOT metabolized"
compound="COc1ccc2[nH]c([S+]([O-])Cc3ncc(C)c(OC)c3C)nc2n1 (stereo not given)" quantity_name="Bacterial Biotransformation" recorded_measurement="Compound metabolized"
compound="C#C[C@]1(OC(C)=O)CC[C@H]2[C@@H]3CCC4=C[C@@H](OC(C)=O)CC[C@@H]4[C@H]3CC[C@@]21C [ETHYNODIOL DIACETATE]" quantity_name="Bacterial Biotransformation" recorded_measurement="Compound NOT metabolized"
compound=CCCCc1nc(Cl)c(CO)n1Cc1ccc(-c2ccccc2-c2nn[nH]n2)cc1 quantity_name="Bacterial Biotransformation" recorded_measurement="Compound NOT metabolized"
compound="CC(NC(C)(C)C)C(=O)c1cccc(Cl)c1 (stereo not given)" quantity_name="Bacterial Biotransformation" recorded_measurement="Compound NOT metabolized"

Inquiry: Requested read-out: Bacterial Biotransformation. Entry: CN1CCN(C2=Nc3ccccc3Oc3ccc(Cl)cc32)CC1.O=C(O)CCC(=O)O [LOXAPINE SUCCINATE]
Reply text: Compound NOT metabolized

Inquiry: Requested read-out: Bacterial Biotransformation. Entry: COc1ccccc1OCCNCC(O)COc1cccc2[nH]c3ccccc3c12 (stereo not given)
Reply text: Compound NOT metabolized

Inquiry: Requested read-out: Bacterial Biotransformation. Entry: CN(C)CCC=C1c2ccccc2C=Cc2ccccc21
Reply text: Compound NOT metabolized

Inquiry: Requested read-out: Bacterial Biotransformation. Entry: CC(C)NCC(O)c1ccc(NS(C)(=O)=O)cc1 (stereo not given)
Reply text: Compound NOT metabolized

Inquiry: Requested read-out: Bacterial Biotransformation. Entry: CCCCCNC(=N)N/N=C/c1c[nH]c2ccc(OC)cc12.O=C(O)/C=C\C(=O)O [TEGASEROD MALEATE]
Reply text: Compound NOT metabolized

Inquiry: Requested read-out: Bacterial Biotransformation. Entry: CCCc1nc(C(C)(C)O)c(C(=O)OCc2oc(=O)oc2C)n1Cc1ccc(-c2ccccc2-c2nnn[nH]2)cc1
Reply text: Compound metabolized

Inquiry: Requested read-out: Bacterial Biotransformation. Entry: CN1C[C@H](C(=O)N[C@]2(C)O[C@@]3(O)[C@@H]4CCCN4C(=O)[C@H](Cc4ccccc4)N3C2=O)C=C2c3cccc4[nH]cc(c34)C[C@H]21.CN1C[C@H](C(=O)N[C@]2(C)O[C@@]3(O)[C@@H]4CCCN4C(=O)[C@H](Cc4ccccc4)N3C2=O)C=C2c3cccc4[nH]cc(c34)C[C@H]21.O=C(O)C(O)C(O)C(=O)O [ERGOTAMINE TARTRATE]
Reply text: Compound metabolized

Inquiry: Requested read-out: Bacterial Biotransformation. Entry: C#C[C@]1(O)CC[C@H]2[C@@H]3CCC4=Cc5oncc5C[C@]4(C)[C@H]3CC[C@@]21C
Reply text: Compound metabolized

Inquiry: Requested read-out: Bacterial Biotransformation. Entry: COc1ccc2[nH]c([S+]([O-])Cc3ncc(C)c(OC)c3C)nc2c1 (stereo not given)
Reply text: Compound metabolized

Inquiry: Requested read-out: Bacterial Biotransformation. Entry: Cc1cc2c(cc1S(N)(=O)=O)S(=O)(=O)CCC2
Reply text: Compound NOT metabolized

----------
- ASSAY_PROCEDURE: The drug is tested on Providencia stuartii strain: ATCC25827 for biotransformation. The drug concentrations were measured before and after a 12-h incubation by liquid-chromatography-coupled mass spectrometry (LC–MS)
- CONDITION_SET: 2 µM
QUANTITY_NAME: Bacterial Biotransformation

Some solved entries appear below for comparison.
compound=CCCCC1=NC2(CCCC2)C(=O)N1Cc1ccc(-c2ccccc2-c2nnn[nH]2)cc1 quantity_name="Bacterial Biotransformation" recorded_measurement="Compound metabolized"
compound="NC(=O)N1c2ccccc2CC(=O)c2ccccc21 [OXCARBAZEPINE]" quantity_name="Bacterial Biotransformation" recorded_measurement="Compound metabolized"
compound="C=CCc1ccccc1OCC(O)CNC(C)C (stereo not drawn)" quantity_name="Bacterial Biotransformation" recorded_measurement="Compound NOT metabolized"
compound=CC(C)(C)N.CCC[C@H](N[C@@H](C)C(=O)N1[C@H](C(=O)O)C[C@@H]2CCCC[C@@H]21)C(=O)OCC quantity_name="Bacterial Biotransformation" recorded_measurement="Compound NOT metabolized"
compound="CCCCCNC(=N)N/N=C/c1c[nH]c2ccc(OC)cc12.O=C(O)/C=C\\C(=O)O [TEGASEROD MALEATE]" quantity_name="Bacterial Biotransformation" recorded_measurement="Compound NOT metabolized"

Inquiry: Requested read-out: Bacterial Biotransformation. Entry: N#Cc1ccc2[nH]cc(CCCCN3CCN(c4ccc5oc(C(N)=O)cc5c4)CC3)c2c1
Reply text: Compound metabolized

Inquiry: Requested read-out: Bacterial Biotransformation. Entry: OCCN(CCO)c1nc(N2CCCCC2)c2nc(N(CCO)CCO)nc(N3CCCCC3)c2n1
Reply text: Compound NOT metabolized

Inquiry: Requested read-out: Bacterial Biotransformation. Entry: CN(C)CC(c1ccc(O)cc1)C1(O)CCCCC1.O=C(O)CCC(=O)O (stereo not drawn) [DESVENLAFAXINE SUCCINATE]
Reply text: Compound NOT metabolized

----------
- ASSAY_PROCEDURE: The drug is tested on Anaerotruncus colihominis strain: DSM17241 for biotransformation. The drug concentrations were measured before and after a 12-h incubation by liquid-chromatography-coupled mass spectrometry (LC–MS)
- CONDITION_SET: 2 µM
QUANTITY_NAME: Bacterial Biotransformation

Some solved entries appear below for comparison.
compound="OCCN(CCO)c1nc(N2CCCCC2)c2nc(N(CCO)CCO)nc(N3CCCCC3)c2n1 [DIPYRIDAMOLE]" quantity_name="Bacterial Biotransformation" recorded_measurement="Compound NOT metabolized"
compound="COc1ccc(Cc2nccc3cc(OC)c(OC)cc23)cc1OC [PAPAVERINE]" quantity_name="Bacterial Biotransformation" recorded_measurement="Compound NOT metabolized"
compound="COCCCC/C(=N\\OCCN)c1ccc(C(F)(F)F)cc1.O=C(O)/C=C\\C(=O)O [FLUVOXAMINE MALEATE]" quantity_name="Bacterial Biotransformation" recorded_measurement="Compound NOT metabolized"
compound="Nc1nc2ccc(OC(F)(F)F)cc2s1 [RILUZOLE]" quantity_name="Bacterial Biotransformation" recorded_measurement="Compound NOT metabolized"

Shift focus to the following entry.
Inquiry: Requested read-out: Bacterial Biotransformation. Entry: C#C[C@]1(OC(C)=O)CC[C@H]2[C@@H]3CCC4=C[C@@H](OC(C)=O)CC[C@@H]4[C@H]3CC[C@@]21C [ETHYNODIOL DIACETATE]
Reply text: Compound NOT metabolized

----------
- ASSAY_PROCEDURE: The drug is tested on Clostridium scindens strain: ATCC35704 for biotransformation. The drug concentrations were measured before and after a 12-h incubation by liquid-chromatography-coupled mass spectrometry (LC–MS)
- CONDITION_SET: 2 µM
QUANTITY_NAME: Bacterial Biotransformation

compound="CC[C@@H](CO)NC(=O)[C@@H]1C=C2c3cccc4c3c(cn4C)C[C@H]2N(C)C1.O=C(O)/C=C\\C(=O)O [METHYSERGIDE MALEATE]" quantity_name="Bacterial Biotransformation" recorded_measurement="Compound metabolized"
compound="CCOC(=O)[C@H](CCc1ccccc1)N[C@@H](C)C(=O)N1CCC[C@H]1C(=O)O.O=C(O)/C=C\\C(=O)O [ENALAPRIL MALEATE]" quantity_name="Bacterial Biotransformation" recorded_measurement="Compound NOT metabolized"
compound="CC(=O)OCC(=O)NCCCOc1cccc(CN2CCCCC2)c1 [ROXATIDINE ACETATE]" quantity_name="Bacterial Biotransformation" recorded_measurement="Compound metabolized"
compound="CCCCCCOC(=O)/N=C(/N)c1ccc(NCc2nc3cc(C(=O)N(CCC(=O)OCC)c4ccccn4)ccc3n2C)cc1.CS(=O)(=O)O [DABIGATRAN ETEXILATE MESYLATE]" quantity_name="Bacterial Biotransformation" recorded_measurement="Compound NOT metabolized"
compound="CCOc1ccc2nc(S(N)(=O)=O)sc2c1 [ETHOXZOLAMIDE]" quantity_name="Bacterial Biotransformation" recorded_measurement="Compound metabolized"

Inquiry: Requested read-out: Bacterial Biotransformation. Entry: Cc1nc2n(c(=O)c1CCN1CCC(c3noc4cc(F)ccc34)CC1)CCCC2 [RISPERIDONE]
Reply text: Compound metabolized

Inquiry: Requested read-out: Bacterial Biotransformation. Entry: COc1cc2c(c(OC)c1OC)-c1ccc(OC)c(=O)cc1[C@@H](NC(C)=O)CC2 [COLCHICINE]
Reply text: Compound NOT metabolized

Inquiry: Requested read-out: Bacterial Biotransformation. Entry: CC(CN1c2ccccc2Sc2ccccc21)N(C)C (stereo not drawn) [PROMETHAZINE]
Reply text: Compound NOT metabolized
